System: PXR homodimer (NR concentration 270 nM)
ASSAY TEXT: PBM binding z-score (relative to random genomic background probes); higher = stronger binding; sequences stand for … in GC…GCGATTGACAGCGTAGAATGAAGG
Mark fulfilled for reported PBM binding z-score of 0.1 or greater; mark not fulfilled for anything smaller.

Example entries and their recorded answers appear below.
Kindly determine if PBM binding z-score recorded for ACTAGTTGGTCAGCTAAGGTCACACACAATTCGG is above or exactly 0.1.
fulfilled

Kindly determine if PBM binding z-score recorded for CAAACTAGGTCAAAGGTTAAAGTCGAGCCAACCA is above or exactly 0.1.
fulfilled

Kindly determine if PBM binding z-score recorded for CGAACGAGGGCATGAGTTGATAGCAAATGCCGAT is above or exactly 0.1.
not fulfilled

Kindly determine if PBM binding z-score recorded for GATACAGGGTCAGCTAGAGGCCAGACTATGGAAA is above or exactly 0.1.
fulfilled

Kindly determine if PBM binding z-score recorded for TAGCCTAGGTCATTGGGACAGTATAGTACGCATC is above or exactly 0.1.
not fulfilled

Kindly determine if PBM binding z-score recorded for CCTTACGGGTCACACCAGGTTATAGCATCGGAGT is above or exactly 0.1.
fulfilled

Kindly determine if PBM binding z-score recorded for ATCTCTAGGTAAAAGTGCAGTGAATCCCGAGGAT is above or exactly 0.1.
fulfilled

Kindly determine if PBM binding z-score recorded for CCGACAGGGGCAAGGTTACCATAACGCACAGCCA is above or exactly 0.1.
not fulfilled

Others:
Kindly determine if PBM binding z-score recorded for ATACCAAGGTGATCGTGAGGTCTTTGATACTAAC is above or exactly 0.1.
not fulfilled

Kindly determine if PBM binding z-score recorded for GCTGCTAGGACAACTGATGGTCAGCTAAAGCTCG is above or exactly 0.1.
not fulfilled

Kindly determine if PBM binding z-score recorded for ATATGTAGGTTAGCTGGGGGCATTCAGACTAGGC is above or exactly 0.1.
fulfilled

Kindly determine if PBM binding z-score recorded for CGAACTAGGTCATTGACAGGACAGCGAATAGTAA is above or exactly 0.1.
fulfilled

The reported numbers originate from the supplement of paper PMC6555819.
